# MEASURED TARGET: GST-VEGFR2 (Homo sapiens)
# Construct: GST-VEGFR2, baculovirus expressed recombinant constructs of the intracellular domains
# Sequence (P35968 786-1356 limits assumed): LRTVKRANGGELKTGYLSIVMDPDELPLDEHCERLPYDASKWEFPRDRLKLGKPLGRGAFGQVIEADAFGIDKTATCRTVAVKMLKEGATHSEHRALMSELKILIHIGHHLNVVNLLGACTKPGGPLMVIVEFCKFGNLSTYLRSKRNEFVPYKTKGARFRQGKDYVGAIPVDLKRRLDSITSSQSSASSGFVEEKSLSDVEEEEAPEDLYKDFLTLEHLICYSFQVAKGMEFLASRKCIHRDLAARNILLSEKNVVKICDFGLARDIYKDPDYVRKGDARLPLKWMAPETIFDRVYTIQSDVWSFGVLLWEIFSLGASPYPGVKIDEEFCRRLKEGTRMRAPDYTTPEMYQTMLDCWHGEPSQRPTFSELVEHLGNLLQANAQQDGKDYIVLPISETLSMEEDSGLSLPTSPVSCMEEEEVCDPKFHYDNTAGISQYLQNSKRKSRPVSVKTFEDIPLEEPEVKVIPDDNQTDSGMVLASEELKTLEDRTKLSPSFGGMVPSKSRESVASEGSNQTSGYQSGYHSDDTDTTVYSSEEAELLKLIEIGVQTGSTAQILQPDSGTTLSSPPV
# ASSAY DETAILS: VEGF-R2 Enzyme Assay (VEGF-E2), LANCE method
# MEASUREMENT PARAMETERS: read-out: VEGFR2 PIC50 VEGFR-E2 assay
pIC50: −log10 of the molar value.
MEASUREMENT KIND: pIC50

So for Cn1nc(-c2ccc(NC(=O)Nc3cc(C(C)(C)C)on3)c(F)c2)c2cnc(NCCCN3CCOCC3)nc21 , the logged pIC50 turned out to be < 5.00

The measured pIC50 associated with Cn1nc(-c2ccc(NC(=O)Nc3cc(C(F)(F)F)ccc3F)cc2)c2cnc(NCCCCCO)nc21 reads < 5.00

Cn1nc(-c2ccc(NC(=O)Nc3ccc4ccccc4c3)c(F)c2)c2cnc(NCCN3CCOCC3)nc21 yielded pIC50 of < 5.00

What the record says about Cn1nc(-c2ccc(NC(=O)Nc3cc(C(F)(F)F)ccc3F)cc2)c2cnc(NC(CO)CO)nc21 : pIC50 is < 5.00

Query Cn1cccc1CCNc1ncc2c(-c3ccc(NC(=O)Nc4cc(C(F)(F)F)ccc4F)cc3)nn(C)c2n1 yields pIC50 of 5.00 to 6.00

The molecule identified as Cn1nc(-c2ccc(NC(=O)Nc3cc(C(F)(F)F)ccc3F)cc2)c2cnc(NCCCCO)nc21 registered its pIC50 at 5.00 to 6.00

Looking up Cn1nc(-c2ccc(NC(=O)Nc3cc(C(C)(C)C)on3)cc2)c2cnc(NCCN3CCOCC3)nc21 , I found its pIC50 recorded as 5.00 to 6.00

Please fill in: pIC50 reported for Cn1nc(-c2ccc(NC(=O)Nc3cc(C(F)(F)F)ccc3F)cc2)c2cnc(NCc3ccncc3)nc21 = 5.00 to 6.00

Reported pIC50 of Cn1nc(-c2ccc(NS(=O)(=O)c3cccc(Cl)c3Cl)cc2)c2cnc(NCCCCCO)nc21 : 5.00 to 6.00

Sure, the documented pIC50 for Cn1nc(-c2ccc(NC(=O)Nc3cc(C(F)(F)F)ccc3F)cc2)c2cnc(NCCCn3ccnc3)nc21 is 6.00 to 7.00

pIC50 for Cn1nc(-c2ccc(NS(=O)(=O)c3cccc(Cl)c3Cl)cc2)c2cnc(NCCCCO)nc21 is 5.00 to 6.00

Data point: CC(=O)Nc1ncc2c(-c3ccc(NS(=O)(=O)c4cccc(Cl)c4Cl)cc3)nn(C)c2n1 ; pIC50 = 5.00 to 6.00

Short answer for Cc1cc(-c2nn(C)c3nc(NCCN4CCOCC4)ncc23)ccc1NS(=O)(=O)c1cccc(Cl)c1Cl : pIC50 was < 5.00

Summary for this molecule, Cn1nc(-c2ccc(NS(=O)(=O)c3cccc(Cl)c3Cl)cc2)c2cnc(NCCN3CCNC3=O)nc21 : pIC50 is 5.00 to 6.00

Entry CC(=O)NCCNc1ncc2c(-c3ccc(NC(=O)Nc4cc(C(F)(F)F)ccc4F)cc3)nn(C)c2n1 , pIC50 reported as 5.00 to 6.00
